Catalogue of AIRE transcriptional activation functional score readings, one per entry.
B1: library; numbered along this chain (parent)
chain: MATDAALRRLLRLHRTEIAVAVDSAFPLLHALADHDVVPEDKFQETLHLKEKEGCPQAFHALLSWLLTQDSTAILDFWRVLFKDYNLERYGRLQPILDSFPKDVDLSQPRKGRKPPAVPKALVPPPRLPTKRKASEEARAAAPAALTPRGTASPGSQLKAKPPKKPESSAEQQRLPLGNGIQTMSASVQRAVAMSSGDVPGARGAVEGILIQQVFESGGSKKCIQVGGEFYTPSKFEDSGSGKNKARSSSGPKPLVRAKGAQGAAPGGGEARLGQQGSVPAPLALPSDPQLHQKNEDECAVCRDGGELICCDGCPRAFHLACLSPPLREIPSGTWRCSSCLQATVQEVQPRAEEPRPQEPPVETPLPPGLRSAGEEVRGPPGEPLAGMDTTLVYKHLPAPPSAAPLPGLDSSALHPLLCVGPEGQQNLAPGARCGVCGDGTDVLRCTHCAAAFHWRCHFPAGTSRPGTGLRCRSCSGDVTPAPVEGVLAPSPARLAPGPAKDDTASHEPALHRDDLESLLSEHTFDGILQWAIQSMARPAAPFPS

Variants of: B1
Experiment: AIRE transcriptional activation functional score (insulin promoter-GFP; nonsense median 0, synonymous median 1) (normalised score); higher = higher AIRE activity (more reporter activation)
Conditions: with insulin promoter-GFP reporter in HEK293
Respond numerically, and do not add a unit to the figure.

   mutant_designation  recorded_number
0                C55P            0.602
1                D70I            0.395
2               P282G             1.03
3                K83A            0.537

Reported AIRE transcriptional activation functional score of L106P : -1.47

Reported AIRE transcriptional activation functional score of E363Q : 0.775
